The following molecules each carry a recorded IC50 for UniProt:P00630.
Sequence (P00630 34-167 limits assumed): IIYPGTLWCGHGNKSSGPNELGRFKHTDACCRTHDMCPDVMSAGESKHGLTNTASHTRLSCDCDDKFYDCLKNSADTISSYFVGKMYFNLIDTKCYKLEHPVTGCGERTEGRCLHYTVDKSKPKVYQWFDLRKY
Write down the numeric answer in µM and omit the unit.

Requested read-out IC50, target or system UniProt:P00630, entry CC1=C(CC/C(C)=C/CCC2=CC[C@H](C3=CC(=O)O[C@H]3O)O[C@H]2O)C(C)(C)CCC1 [Manoalide, reference compound]
0.05

How about O=C(c1nc(-c2c[nH]c3ccccc23)c[nH]1)c1c[nH]c2cc(O)ccc12 ?
0.5

====

Test system: PMA-induced mouse ear edema
protocol notes: Mouse ear anti-inflammatory assay (topical inhibition of PMA-induced edema)
reported conditions: topical, simultaneous with PMA; 3 h 20 min; Table 2
measurement type: ED50, topical inhibition of PMA-induced mouse ear edema (μg/ear)
Write down the numeric answer in μg/ear and omit the unit.

I'd like to know its ED50, topical inhibition of PMA-induced mouse ear edema. The molecule in question is O=C(c1nc(-c2c[nH]c3ccccc23)c[nH]1)c1c[nH]c2cc(O)ccc12 [Topsentin]
15

How about COc1ccc2c(c1)c(CC(=O)O)c(C)n2C(=O)c1ccc(Cl)cc1 [Indomethacin, reference compound] ?
250

How about C[C@]12CCC(=O)C=C1CC[C@@H]1[C@@H]2[C@@H](O)C[C@@]2(C)[C@H]1CC[C@]2(O)C(=O)CO [Hydrocortisone, reference compound] ?
20

How about CC1=C(CC/C(C)=C/CCC2=CC[C@H](C3=CC(=O)O[C@H]3O)O[C@H]2O)C(C)(C)CCC1 [Manoalide, reference compound] ?
100

====

Tested on: PMA-induced mouse ear edema
protocol notes: Mouse ear anti-inflammatory assay (topical inhibition of PMA-induced edema)
reported conditions: dose 50 μg/ear, topical; Table 3
measurement type: % Inhibition of edema (%)
Write down the numeric answer in % and omit the unit.

I'd like to know its % Inhibition of edema. The molecule in question is CC(=O)Oc1ccc2c(C(=O)c3ncc(-c4c[nH]c5ccccc45)n3C(C)=O)c[nH]c2c1 [Topsentin diacetate, topsentin diacetate]
42.6

How about CN1CC(c2c[nH]c3c(Br)c(Br)cc(O)c23)NCC1c1c[nH]c2cc(Br)ccc12 (centres unmarked) [Dragmacidin] ?
64.0

How about O=C(c1nc(-c2c[nH]c3cc(Br)ccc23)c[nH]1)c1c[nH]c2cc(O)ccc12 [Bromotopsentin] ?
75.4

How about Brc1ccc2c(-c3nc(-c4c[nH]c5ccccc45)c[nH]3)c[nH]c2c1 [Nortopsentin B, nortopsentin B] ?
38.2

How about O=C(c1nc(-c2c[nH]c3ccccc23)c[nH]1)c1c[nH]c2cc(O)ccc12 [Topsentin] ?
70.6

How about CC(=O)Oc1ccc2c(C(=O)c3ncc(-c4c[nH]c5ccccc45)[nH]3)c[nH]c2c1 [Topsentin monoacetate] ?
45.8

How about Brc1ccc2c(-c3c[nH]c(-c4c[nH]c5ccccc45)n3)c[nH]c2c1 [Nortopsentin C, nortopsentin C] ?
70.1

How about Brc1ccc2c(-c3c[nH]c(-c4c[nH]c5cc(Br)ccc45)n3)c[nH]c2c1 [Nortopsentin A] ?
98.1
